Target: T1, soluble human CD3 epsilon chain (human, UniProt P07766 23-126)
T1 construct: also called CD3ε
T1 sequence (P07766 23-126 limits assumed): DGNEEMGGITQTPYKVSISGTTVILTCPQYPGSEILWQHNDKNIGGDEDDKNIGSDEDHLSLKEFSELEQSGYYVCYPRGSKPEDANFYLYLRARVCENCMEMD
Assay: SPR
This section presents binders with their documented Kd values.
// units = nM; emit number, no label

The binder TR01H071-E22Hh/none-Hi-Kn010G3/L0200-k0 (antibody, V domains shown, one-arm) VH: QVQLVESGGGLVQPGRSLRLSCAASGFTFSNAWMHWVRQAPGKGLEWVAQIKDKSNNYATYYAESVKGRFTISRADSKNSIYLQMNSLKTEDTAVYYCRYVHYAASYGVDIWGQGTTVTVSS VL: DIVMTQSPLSLPVTPGEPASISCRPSQSPVHSNRNTYLHWYQQKPGQAPRLLIYKVSNRFSGVPDRFSGSGSGTDFTLKISRVEAEDVGVYYCGQGTQVPYTFGQGTKLEIK showed Kd equal to 6.13

Others:
The binder TR01H022-E22Hh/none-Hi-Kn010G3/L0000-k0 (antibody, V domains shown, one-arm) VH: QVQLVESGGGLVQPGGSLRLSCAASGFTFSNAWMHWVRQAPGKGLEWVAQIKGKSQNYATYYAPSVKGRFTISRADSKNSIYLQMNSLKTEDTAVYYCRYVHYSASYGVDIWGQGTTVTVSS VL: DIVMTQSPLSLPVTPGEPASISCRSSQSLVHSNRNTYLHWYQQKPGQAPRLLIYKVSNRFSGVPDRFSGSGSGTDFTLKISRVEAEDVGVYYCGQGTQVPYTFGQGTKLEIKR showed Kd equal to 75.8

The binder TR01H111-E2702GsKsc/none-Hi-E2704sE/L0011-k0 (antibody, V domains shown, one-arm) VH: QVQLVESGGGVVQPGGSLKLSCAASGFTFSNAWMHWVRQAPGKGLEWVAQIKDKSQNYATYYAESVKGRFTISRADSKNSIYLQMNSLKTEDTAVYYCRYVHYAAGYGVDIWGQGTTVTVSS VL: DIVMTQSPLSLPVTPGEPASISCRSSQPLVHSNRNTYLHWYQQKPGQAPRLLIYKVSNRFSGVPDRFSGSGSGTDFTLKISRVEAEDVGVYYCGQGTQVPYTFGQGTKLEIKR showed Kd equal to 4.91
